# Test system: AGEs (advanced glycation end products) formation
# test.details: In vitro inhibitory activity of AGEs formation (bovine serum albumin/glucose, fluorescence)
# setup.conditions: 50% inhibition of fluorescence intensity of AGE relative to 0.1% DMSO; mean ± SD (n = 3)
pIC50: −log10 of the molar value.
Below, each of the molecules is paired with its reported pIC50 value.
experimental.endpoint: pIC50

COc1cc(/C=C/c2ccc(OCCCCCCO[N+](=O)[O-])cc2)cc(OC)c1 [3c] = 5.83
N=C(N)NN [AG, amino guanidine, reference compound] = 3.55
COc1cc(/C=C/c2ccc(OCCO[N+](=O)[O-])cc2)cc(OC)c1 [3a, O4′-Nitrooxyethyl pterostilbene] = 5.54
COc1cc(/C=C/c2ccc(OCCCCO[N+](=O)[O-])cc2)cc(OC)c1 [3b] = 5.62
Oc1ccc(/C=C/c2cc(O)cc(O)c2)cc1 [Resveratrol, reference compound] = 6.08
COc1cc(/C=C/c2ccc(O)cc2)cc(OC)c1 [Pterostilbene, reference compound] = 5.70

* * *

# experimental.system: aldose reductase (ALR2) (Mus musculus)
# Construct: After homogenisation and centrifugation, the crude ALR2 from mice was obtained; from tissue
# test.details: In vitro ALR2 inhibitory activity (crude enzyme, NADPH decrease at 340 nm)
# Assay type: biochemical, mice
# setup.conditions: read-out: IC50 value, ALR2 inhibitory activity
Below, each of the molecules is paired with its reported IC50 value.
experimental.endpoint: IC50 (µM)

Oc1ccc(/C=C/c2cc(O)cc(O)c2)cc1 [Resveratrol, reference compound] = 17
COc1cc(/C=C/c2ccc(OCCCCCCO[N+](=O)[O-])cc2)cc(OC)c1 [3c] = 299

* * *

# test.details: Oral toxicity to mice (Lorke's method)
# setup.conditions: both sexes, mouse, in vivo, Kunming mice, 14 days observation
experimental.endpoint: LD50 at 14 days

COc1cc(/C=C/c2ccc(OCCCCCCO[N+](=O)[O-])cc2)cc(OC)c1 [3c] = > 5000 mg/kg

* * *

Below, each of the compounds is paired with its reported IC50 value.
# experimental.system: α-Glucosidase (Saccharomyces cerevisiae)
# Construct: purchased Sigma Aldrich G0660-750UN
# Sequence (P53341 whole entry): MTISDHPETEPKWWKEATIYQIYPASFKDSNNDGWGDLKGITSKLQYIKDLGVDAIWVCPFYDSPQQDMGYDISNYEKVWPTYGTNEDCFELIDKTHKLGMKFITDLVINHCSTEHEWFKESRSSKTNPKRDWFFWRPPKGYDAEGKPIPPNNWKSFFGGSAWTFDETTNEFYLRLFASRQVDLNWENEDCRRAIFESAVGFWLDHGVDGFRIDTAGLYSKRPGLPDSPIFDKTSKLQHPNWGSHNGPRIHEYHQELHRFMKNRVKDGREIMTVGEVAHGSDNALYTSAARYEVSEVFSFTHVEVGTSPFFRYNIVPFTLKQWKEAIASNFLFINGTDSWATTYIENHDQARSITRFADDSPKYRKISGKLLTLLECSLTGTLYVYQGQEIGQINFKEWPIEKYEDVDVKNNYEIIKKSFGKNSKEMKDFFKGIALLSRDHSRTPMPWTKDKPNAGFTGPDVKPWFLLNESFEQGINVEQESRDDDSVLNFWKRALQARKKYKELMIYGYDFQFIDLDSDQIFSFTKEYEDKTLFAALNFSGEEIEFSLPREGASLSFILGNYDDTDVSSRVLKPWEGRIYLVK
# test.details: biochemical
# setup.conditions: read-out: IC50 value, α-Glucosidase inhibitory activity
experimental.endpoint: IC50

COc1cc(/C=C/c2ccc(OCCCCO[N+](=O)[O-])cc2)cc(OC)c1 [3b] = > 1000 µM
COc1cc(/C=C/c2ccc(OCCCCCCO[N+](=O)[O-])cc2)cc(OC)c1 [3c] = 83.1 µM
COc1cc(/C=C/c2ccc(OCCO[N+](=O)[O-])cc2)cc(OC)c1 [3a, O4′-Nitrooxyethyl pterostilbene] = > 1000 µM
COc1cc(/C=C/c2ccc(O)cc2)cc(OC)c1 [Pterostilbene, reference compound] = > 1000 µM

* * *

# experimental.system: aldose reductase (ALR2) (Mus musculus)
# Construct: After homogenisation and centrifugation, the crude ALR2 from mice was obtained; from tissue
# test.details: In vitro ALR2 inhibitory activity (crude enzyme, NADPH decrease at 340 nm)
# Assay type: biochemical, mice
experimental.endpoint: IC50

O=c1c(O)c(-c2ccc(O)c(O)c2)oc2cc(O)cc(O)c12 [Quercetin, reference compound] = 3.71 µM

* * *

# experimental.system: aldose reductase (ALR2) (Mus musculus)
# Construct: After homogenisation and centrifugation, the crude ALR2 from mice was obtained; from tissue
# test.details: In vitro ALR2 inhibitory activity (crude enzyme, NADPH decrease at 340 nm)
# Type: biochemical, mice
# setup.conditions: read-out: IC50 value, ALR2 inhibitory activity
experimental.endpoint: IC50

COc1cc(/C=C/c2ccc(OCCO[N+](=O)[O-])cc2)cc(OC)c1 = > 1000 µM
COc1cc(/C=C/c2ccc(O)cc2)cc(OC)c1 [Pterostilbene, reference compound] = > 1000 µM
COc1cc(/C=C/c2ccc(OCCCCO[N+](=O)[O-])cc2)cc(OC)c1 = > 1000 µM
